Catalogue of molecules with associated Kb
molecular target: human orexin-2 (hOX2) receptors (Homo sapiens); construct: expressed in transfected cells; assay: Intracellular Ca2+ mobilization assay (FLIPR), antagonism of orexin-A; type: cell-based; conditions: CHO(dHFr-) cells stably expressing hOX2; orexin-A at EC80 as agonist; antagonist applied 25 min before; Kb=IC50/(1+[A]/EC50); read-out: Kb (μM) OX2R (human)
Sequence (O43614 whole entry): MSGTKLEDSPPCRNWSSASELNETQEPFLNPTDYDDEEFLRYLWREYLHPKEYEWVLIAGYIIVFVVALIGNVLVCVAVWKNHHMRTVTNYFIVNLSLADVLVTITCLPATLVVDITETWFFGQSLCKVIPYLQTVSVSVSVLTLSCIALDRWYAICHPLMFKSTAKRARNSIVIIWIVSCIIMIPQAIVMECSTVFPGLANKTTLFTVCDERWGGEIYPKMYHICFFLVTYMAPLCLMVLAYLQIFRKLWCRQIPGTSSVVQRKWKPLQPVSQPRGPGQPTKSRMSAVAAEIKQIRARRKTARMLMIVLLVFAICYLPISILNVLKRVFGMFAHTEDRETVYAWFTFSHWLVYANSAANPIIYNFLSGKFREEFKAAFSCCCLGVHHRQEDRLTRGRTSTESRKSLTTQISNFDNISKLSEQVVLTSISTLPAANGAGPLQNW
Reply numerically in µM, unit not repeated.

Worked cases, answers included:
Cn1ccc2ccc(N(CCc3ccc(C(F)(F)F)cn3)C(=O)C(O)c3ccc(F)cc3)cc21 (racemic) [Example 54] | 0.0078
COc1cccc(N(CCc2ccc(C(F)(F)F)cn2)C(=O)C(O)c2ccc(F)cc2)c1 (racemic) [Example 76] | 0.026
Cc1ccc(N(CCc2ccc(C(F)(F)F)nc2)C(=O)[C@@H](N)c2ccc(F)cc2)cc1C [Example 10] | 0.0014
O=C(C(O)c1ccc(F)cc1)N(CCc1ccc(C(F)(F)F)cn1)c1ccc(Cl)c(CO)c1 (racemic) [Example 98] | 0.0216
O=C([C@H](O)c1ccc(F)cc1)N(CCc1ccc(C(F)(F)F)cn1)c1ccc2c(c1)CCC2 (racemic) [Example 73] | 0.0313

Quick one: Kb of COc1ccc(N(CCc2ccc(C(F)(F)F)nc2)C(=O)[C@@H](NC(=O)[C@@H](N)c2ccccc2)c2ccccc2)cc1OC [Example 4] ?
0.0017

Ok, now Cc1ccc(N(CCc2ccc(C(F)(F)F)nc2)C(=O)[C@@H](O)c2ccc(F)cc2)cc1C [Example 7]
0.0005

Please do the same for Cc1ccc(N(CCc2ccc(C(F)(F)F)cn2)C(=O)C(O)c2ccc(F)cc2)cc1F (racemic) [Example 78] as well.
0.0481

Quick one: O=C([C@@H](O)c1ccccc1)N(CCc1ccc(C(F)(F)F)nc1)c1ccc2c(c1)CCCO2 [Example 62]
0.011

And for COc1cc(N(CCc2ccc(C(F)(F)F)nc2)C(=O)[C@@H](O)c2ccc(F)cc2)ccc1C [Example 61] ?
0.0026

Follow-up item: Cc1ccc(N(CCc2ccc(C(F)(F)F)nc2)C(=O)C(C)(O)c2ccccc2)cc1C (racemic) [Example 27]
0.068

Please do the same for Cc1cc(N(CCc2ccc(C(F)(F)F)cn2)C(=O)C(O)c2ccc(F)cc2)ccc1F (racemic) [Example 77] as well.
0.0075

Ok, now COc1ccc(N(CCc2ccc(C(F)(F)F)cc2)C(=O)C(N)c2ccccc2)cn1 (racemic) [Example 36]
0.061

Next molecule: Cc1ccc(N(CCc2ccc(C(F)(F)F)nc2)C(=O)[C@@H](O)c2ccccc2)cc1C [Example 2]
0.0025

What do you have for O=C([C@@H](O)c1ccc(F)cc1)N(CCc1ccc(C(F)(F)F)nc1)c1ccc2c(c1)C(O)CCO2 (single isomer, unassigned) [Example 102] ?
0.0116

Data provenance: patent US8133909B2
